Molecular target: T1, human glycophorin A on human red blood cells or red blood cell membranes (human, UniProt P02724 20-150)
T1 construct: whole, on cells; also called hRBC; human RBC membranes
T1 sequence (looked up): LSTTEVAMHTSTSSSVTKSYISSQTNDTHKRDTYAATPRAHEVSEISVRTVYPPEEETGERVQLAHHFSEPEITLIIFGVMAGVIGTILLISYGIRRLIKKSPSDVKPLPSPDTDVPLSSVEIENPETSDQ
Experiment: SPR (Biacore), Fab over human RBC membranes, 1:1 fit;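 also: human RBC membrane preparations captured on an L1 sensor surface, with antibody passed over them as analyte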
READOUT_KIND: Kd (nM)
Report as a plain number; the unit nM is understood.

Exam item: Identify measured Kd corresponding to TPP-5678, Hu6C12-24 Fab variant VH: (I48M, D66G, L70M, T72R) (Fab, V domains shown, Built on the parental Fab TPP-4935) VH: EVQLVQSGAEVKKPGASVKVSCKASGYTFTTYTIHWVRQAPGQGLEWMGYINPSSDYTRYNPKFKGRVTMTRDKSTSTAYMELRSLRSDDTAVYYCQTGTRDYWGQGTTVTVSS VL: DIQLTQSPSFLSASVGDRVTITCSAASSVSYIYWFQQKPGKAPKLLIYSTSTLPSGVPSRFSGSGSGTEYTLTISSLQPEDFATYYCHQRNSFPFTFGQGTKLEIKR
Marked response: 37

Exam item: Identify measured Kd corresponding to TPP-5838, Hu6C12-24 Fab variant VL: (S24R, A26S, S49A, P54Q, F95Y); VH: (I48M, D66G, L70M) (Fab, V domains shown, Built on the parental Fab TPP-4935) VH: EVQLVQSGAEVKKPGASVKVSCKASGYTFTTYTIHWVRQAPGQGLEWMGYINPSSDYTRYNPKFKGRVTMTTDKSTSTAYMELRSLRSDDTAVYYCQTGTRDYWGQGTTVTVSS VL: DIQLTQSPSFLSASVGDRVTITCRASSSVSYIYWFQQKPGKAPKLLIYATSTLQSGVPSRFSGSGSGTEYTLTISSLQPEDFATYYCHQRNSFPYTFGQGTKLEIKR
Marked response: 3.1

Now take the following binder into account.
Exam item: Identify measured Kd corresponding to TPP-5675, Hu6C12-24 Fab variant VH: (I48M, L70M, T72R) (Fab, V domains shown, Built on the parental Fab TPP-4935) VH: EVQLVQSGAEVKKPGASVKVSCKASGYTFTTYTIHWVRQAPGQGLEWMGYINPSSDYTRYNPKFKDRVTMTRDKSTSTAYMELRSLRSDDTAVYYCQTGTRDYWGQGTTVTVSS VL: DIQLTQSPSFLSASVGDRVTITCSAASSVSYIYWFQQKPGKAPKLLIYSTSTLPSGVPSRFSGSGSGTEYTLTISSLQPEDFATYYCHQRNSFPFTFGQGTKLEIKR
Marked response: 87
